B1: C9orf25 (parent)
chain: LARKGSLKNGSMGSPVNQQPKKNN

Variants of: B1
experiment summary: protein stability index of a GFP-peptide fusion (GPS, HEK-293T) (PSI 1-6); higher = more stable;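 further: lentivirally expressed fusions sorted by FACS into six bins by GFP to DsRed ratio, PSI derived from sequencing read proportions per bin multiplied by bin number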
measurement conditions: c terminus: a fixed tail appended
property label: protein stability index
Please reply with the number alone, leaving off any unit.

> print(dat)
   variant.string  result
1             S6W    4.23

# return recorded protein stability index for input "N9C"
4.46

# return recorded protein stability index for input "R3L"
4.41

# return recorded protein stability index for input "L7P"
4.71
